Just for reference, ChEMBL document CHEMBL4382291 is where these values come from.

# measuredOn: Tyrosine-protein kinase BTK (Homo sapiens, UniProt Q06187, C481S)
# Sequence (Q06187 2-659 C481S limits assumed): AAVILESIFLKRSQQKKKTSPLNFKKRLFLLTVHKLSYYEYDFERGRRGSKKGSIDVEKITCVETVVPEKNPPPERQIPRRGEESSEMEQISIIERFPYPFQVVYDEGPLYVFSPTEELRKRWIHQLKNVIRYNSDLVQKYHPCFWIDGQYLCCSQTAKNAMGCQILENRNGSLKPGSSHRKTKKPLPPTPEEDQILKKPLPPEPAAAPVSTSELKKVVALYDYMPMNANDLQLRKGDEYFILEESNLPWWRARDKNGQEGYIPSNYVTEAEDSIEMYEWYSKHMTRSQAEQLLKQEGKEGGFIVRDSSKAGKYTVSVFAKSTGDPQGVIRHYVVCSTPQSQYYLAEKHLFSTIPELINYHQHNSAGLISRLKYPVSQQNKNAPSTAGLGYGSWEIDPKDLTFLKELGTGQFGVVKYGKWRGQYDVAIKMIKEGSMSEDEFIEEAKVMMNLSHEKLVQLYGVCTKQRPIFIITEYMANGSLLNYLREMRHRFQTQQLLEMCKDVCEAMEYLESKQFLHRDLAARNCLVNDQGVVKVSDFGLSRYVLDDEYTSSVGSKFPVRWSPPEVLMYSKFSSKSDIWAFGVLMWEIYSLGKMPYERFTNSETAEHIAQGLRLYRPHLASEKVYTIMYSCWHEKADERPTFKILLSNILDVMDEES
# assay: Inhibition of full-length human C-terminal His6-tagged BTK C481S mutant expressed in Sf9 insect cells using FAM-Srctide peptide as substrate preincubated for 1 hr followed by substrate addition and measured after 1 hr by TR-FRET Lanthascreen assay
propertyLabel: log10 of IC50 (log10 of the value in nM)

- compoundStructure: "C=C(C)C(=O)N1CCC[C@@H](n2nc(-c3ccc(Oc4ccc(F)cc4F)cc3)c(C(N)=O)c2N)C1"
  testResult: 2.25
- compoundStructure: "NC(=O)c1c(-c2ccc(Oc3ccc(F)cc3F)cc2)nn([C@@H]2CCCN(C(=O)/C=C/C(F)F)C2)c1N"
  testResult: 2.06
- compoundStructure: "N#CN1CCC[C@@H](n2nc(-c3ccc(Oc4cccc(C(F)(F)F)n4)cc3)c(C(N)=O)c2N)C1"
  testResult: 1.56
- compoundStructure: "C=CC(=O)N1CCC[C@@H](n2nc(-c3ccc(Oc4ccc(F)cc4F)cc3)c(C(N)=O)c2N)C1"
  testResult: 1.23
- compoundStructure: "N#CN1CCC[C@@H](n2nc(-c3ccc(Oc4ccccc4)cc3)c(C(N)=O)c2N)C1"
  testResult: 0.45
- compoundStructure: "NC(=O)c1c(-c2ccc(Oc3ccc(F)cc3F)cc2)nn([C@@H]2CCCN(C(=O)/C=C/CO)C2)c1N"
  testResult: 1.52

---

# measuredOn: Proto-oncogene tyrosine-protein kinase Src (Homo sapiens, UniProt P12931)
# Sequence (P12931 2-536 limits assumed): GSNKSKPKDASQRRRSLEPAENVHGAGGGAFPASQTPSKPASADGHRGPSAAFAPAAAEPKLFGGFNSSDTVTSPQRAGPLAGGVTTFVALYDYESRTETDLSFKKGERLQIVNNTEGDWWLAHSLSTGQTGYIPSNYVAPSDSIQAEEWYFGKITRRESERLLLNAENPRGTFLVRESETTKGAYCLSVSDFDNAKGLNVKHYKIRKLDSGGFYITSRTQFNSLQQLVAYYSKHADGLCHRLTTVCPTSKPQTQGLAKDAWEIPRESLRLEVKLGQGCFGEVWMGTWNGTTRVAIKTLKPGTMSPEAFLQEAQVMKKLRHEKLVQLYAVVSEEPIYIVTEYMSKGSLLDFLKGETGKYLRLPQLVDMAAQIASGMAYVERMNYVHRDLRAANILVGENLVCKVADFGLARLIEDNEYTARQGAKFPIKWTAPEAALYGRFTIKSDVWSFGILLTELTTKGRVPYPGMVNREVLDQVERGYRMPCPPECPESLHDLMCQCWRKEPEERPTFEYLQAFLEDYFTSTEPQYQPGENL
# assay: Inhibition of full-length recombinant human C-terminal His-tagged SRC cytoplasmic domain expressed in baculovirus expression system using FAM-Srctide peptide as substrate preincubated for 1 hr followed by substrate addition and measured after 1 hr by TR-FRET Lanthascreen assay
pIC50: −log10 of the molar value.
// values below are reported pIC50

- compoundStructure: "N#CN1CCC[C@@H](n2nc(-c3ccc(Oc4ccc(Cl)cn4)cc3)c(C(N)=O)c2N)C1"
  sign: "<"
  pIC50: 4.70
- compoundStructure: "NC(=O)c1c(-c2ccc(Oc3ccc(F)cc3F)cc2)nn([C@@H]2CCCN(C(=O)/C=C/CO)C2)c1N"
  sign: "="
  pIC50: 5.34
- compoundStructure: "N#CN1CCC[C@@H](n2nc(-c3ccc(Oc4ccccc4)cc3)c(C(N)=O)c2N)C1"
  sign: "="
  pIC50: 8.38
- compoundStructure: "NC(=O)c1c(-c2ccc(Oc3ccc(F)cc3F)cc2)nn([C@@H]2CCCN(C(=O)/C=C/C(F)F)C2)c1N"
  sign: "="
  pIC50: 5.23
- compoundStructure: "N#CN1CCC[C@@H](n2nc(-c3ccc(Oc4ccc(F)cc4F)cc3)c(C(N)=O)c2N)C1"
  sign: "="
  pIC50: 5.79
- compoundStructure: "C=C(C)C(=O)N1CCC[C@@H](n2nc(-c3ccc(Oc4ccc(F)cc4F)cc3)c(C(N)=O)c2N)C1"
  sign: "="
  pIC50: 5.47
- compoundStructure: "N#CN1CCC[C@@H](n2nc(-c3ccc(Oc4cccc(C(F)(F)F)n4)cc3)c(C(N)=O)c2N)C1"
  sign: "="
  pIC50: 4.84
- compoundStructure: "NC(=O)c1c(-c2ccc(Oc3ccc(F)cc3F)cc2)nn([C@@H]2CCCN(C(=O)/C=C/CF)C2)c1N"
  sign: "="
  pIC50: 5.50
- compoundStructure: "C=CC(=O)N1CCC[C@@H](n2nc(-c3ccc(Oc4ccc(F)cc4F)cc3)c(C(N)=O)c2N)C1"
  sign: "="
  pIC50: 5.39
- compoundStructure: "C=CC(=O)N1CCC[C@@H](n2nc(-c3ccc(Oc4ccc(Cl)cc4)cc3)c(C(N)=O)c2N)C1"
  sign: "="
  pIC50: 7.14
- compoundStructure: "N#CN1CCC[C@@H](n2nc(-c3ccc(Oc4ccc(Cl)cc4)cc3)c(C(N)=O)c2N)C1"
  sign: "="
  pIC50: 5.85
- compoundStructure: "C/C=C/C(=O)N1CCC[C@@H](n2nc(-c3ccc(Oc4ccc(F)cc4F)cc3)c(C(N)=O)c2N)C1"
  sign: "="
  pIC50: 5.47
- compoundStructure: "C=C(F)C(=O)N1CCC[C@@H](n2nc(-c3ccc(Oc4ccc(F)cc4F)cc3)c(C(N)=O)c2N)C1"
  sign: "="
  pIC50: 5.19
- compoundStructure: "CN(C)C/C=C/C(=O)N1CCC[C@@H](n2nc(-c3ccc(Oc4ccc(F)cc4F)cc3)c(C(N)=O)c2N)C1"
  sign: "="
  pIC50: 6.43
- compoundStructure: "N#CN1CCC[C@@H](n2nc(-c3ccc(Oc4ncc(Cl)cc4F)cc3)c(C(N)=O)c2N)C1"
  sign: "<"
  pIC50: 4.70

---

# measuredOn: Tyrosine-protein kinase BTK (Homo sapiens)
# assay: Inhibition of BTK in goat anti-human IgM F(ab')2-stimulated human whole blood assessed as suppression of CD69 expression on B cells pretreated for 1 hr followed by goat anti-human IgM F(ab')2-stimualtion and measured after 3 hrs by Fix/Lyse reagent based flow cytometry
# Assay type: tissue-based
pIC50: −log10 of the molar value.
Overview of reported pIC50 across a group of molecules:
propertyLabel: pIC50

- compoundStructure: "N#CN1CCC[C@@H](n2nc(-c3ccc(Oc4ccc(F)cc4F)cc3)c(C(N)=O)c2N)C1"
  propertyLabel: "pIC50"
  testResult: 7.28
- compoundStructure: "N#CN1CCC[C@@H](n2nc(-c3ccc(Oc4ccc(Cl)cn4)cc3)c(C(N)=O)c2N)C1"
  propertyLabel: "pIC50"
  testResult: 7.35
- compoundStructure: "N#CN1CCC[C@@H](n2nc(-c3ccc(Oc4ncc(Cl)cc4F)cc3)c(C(N)=O)c2N)C1"
  propertyLabel: "pIC50"
  testResult: 7.05
- compoundStructure: "N#CN1CCC[C@@H](n2nc(-c3ccc(Oc4ccc(Cl)cc4)cc3)c(C(N)=O)c2N)C1"
  propertyLabel: "pIC50"
  testResult: 7.34
- compoundStructure: "N#CN1CCC[C@@H](n2nc(-c3ccc(Oc4cccc(C(F)(F)F)n4)cc3)c(C(N)=O)c2N)C1"
  propertyLabel: "pIC50"
  testResult: 7.48
